Could you please report measured Population Hoechst High Intensity Objects (%) for the items listed next?
# Tested on: U2OS
# Assay explanation: Multiplex assay against U2OS
# Assay type: toxicity, cell-based
# Particulars: human, 12 h, 10 µM, compound concentration 10 uM, replicate 1
Answers are plain numbers, in %.

// solved cases for Population Hoechst High Intensity Objects (%) follow
1) CCn1c(-c2nc3cc(C(=O)N4CCCC(N)C4)ccc3n2C)cc2ccccc21.Cl (stereo not drawn) :: 2
2) COc1cc2nc(N3CCN(C(=O)c4ccco4)CC3)nc(N)c2cc1OC.Cl [PRAZOSIN HYDROCHLORIDE] :: 3
3) COc1ccc2c(c1OCc1ccccc1)C[C@@H](C(=O)O)N(C(=O)C(c1ccccc1)c1ccccc1)C2 :: 1
4) COc1cc(C(=O)N2CC[C@@H](O)[C@@H](N)C2)cc2nc(-c3cc4ccccc4n3CC3CC3)n(C)c12.Cl :: 6
5) COc1cc(OC2CCN(C(C)=O)CC2)ccc1C(=O)N1CCC(N2C(=O)OCc3ccccc32)CC1 :: 6
6) Cc1cc(O)c(-c2ccc([C@@H](C)CN(C)C)cc2)c2c1[nH]c(=O)c1sccc12 :: 4
7) CN(C)C/C=C/C(=O)Nc1ccc(C(=O)N2CCCC(Nc3ncc(Cl)c(-c4c[nH]c5ccccc45)n3)C2)cc1 (stereo not drawn) :: 5

# evaluate next
Look at this compound and give its reported Population Hoechst High Intensity Objects (%). `CC(C)(O)C(=O)N1CCN(c2ccc(C(F)(F)F)c(C3=C(c4c[nH]c5ccccc45)C(=O)NC3=O)c2)CC1`
6

###

Could you please report measured Population Membrane Permeable-Phenotype (%) for the items listed next?
# Test system: Fibroblast
# Assay explanation: Multiplex assay against human fibroblast
# Assay type: toxicity, cell-based
# Particulars: 12 h, 10 µM, compound concentration 10 uM, replicate 2
State the value with its unit after it.

// solved cases for Population Membrane Permeable-Phenotype (%) follow
1. CN(C)C(=O)Cn1cc(-c2ccc(-c3nnc4ccccn34)cc2)cn1 :: 15%
2. COc1cc(C(=O)N2CC[C@@H](O)[C@@H](N)C2)cc2nc(-c3cc4ccccc4n3CC3CC3)n(C)c12.Cl :: 2%
3. Cl.Cl.OCCOCCN1CCN(C(c2ccccc2)c2ccc(Cl)cc2)CC1 (stereo not drawn) [HYDROXYZINE HYDROCHLORIDE] :: 7%
4. CCc1nn2c(C)cc(C)nc2c1Cc1ccc(-c2nnc(C3CCNCC3)o2)cc1 :: 5%
5. O=C(O)CCC/C=C\CC1C(O)CC(O)C1/C=C/C(O)COc1cccc(Cl)c1 (stereo not drawn) :: 11%

Quick one: give me Population Membrane Permeable-Phenotype (%) for each item below, same order please.
1. Cc1cc(-c2ccc3c(c2)CC[C@H]3N2CC3(CCN(C(=O)Cc4cn5cc(C)sc5n4)CC3)C2)ncn1
2. COc1cc2nc(N3CCN(C(=O)c4ccco4)CC3)nc(N)c2cc1OC.Cl [PRAZOSIN HYDROCHLORIDE]
3. COc1cc2nc(N3CCN(C(=O)COc4c(OC)cccc4C(C)C)CC3)nc(N)c2cc1OC.Cl.Cl

6%
9%
4%

###

# Tested on: U2OS
# Assay explanation: Multiplex assay against U2OS
# Type: toxicity, cell-based
# Particulars: human, 12 h, 10 µM, compound concentration 10 uM, replicate 2
Non-standard residues stand in square brackets, D forms with d. Residues, ends and D or L forms follow the SMILES beside them.
Measured endpoint: Total Cell Count
Give bare numbers.

// solved cases for Total Cell Count follow
1. Nc1nc(-c2ccco2)c2cnn(Cc3ccccc3F)c2n1 :: 125
2. COc1cc(OC2CCN(C(C)=O)CC2)ccc1C(=O)N1CCC(N2C(=O)OCc3ccccc32)CC1 :: 85
3. Cc1sc2c(c1C)C(c1ccc(Cl)cc1)=N[C@H](CC(=O)OC(C)(C)C)c1nnc(C)n1-2 :: 118

Quick one: give me Total Cell Count for each item below, same order please.
1. CC(C)C[C@H](CO)Nc1nc(S[C@@H](C)c2ccccc2)nc2nc(N)sc12
2. O=C(NCCNCC(O)COc1ccc(O)cc1)N1CCOCC1.O=C(NCCNCC(O)COc1ccc(O)cc1)N1CCOCC1.O=C(O)/C=C/C(=O)O (stereo not drawn) [XAMOTEROL FUMARATE]

135
118

Quick one: give me Total Cell Count for each item below, same order please.
1. Cc1ccc(OCC(O)C(C)NC(C)C)c2c1CCC2.Cl (stereo not drawn)
2. CN1CCN(c2ccc(Nc3c4ccccc4nc4ccccc34)cc2)CC1.Cl.Cl.O
3. CC(C)C[C@@H]1NC(=O)[C@@H](C(C)C)NC(=O)[C@@H]2CCCN2C(=O)[C@@H](CC(=O)O)NC(=O)[C@@H](Cc2c[nH]c3ccccc23)NC1=O [BQ-123] (cyclo(L[dW][dD]P[dV]))

[137, 132, 99]
